Assay: Tmax of unlabeled aliskiren hemifumarate following single intravenous dose of aliskiren hemifumarate at 10 mg.Kg-1 level in mouse
Format: ADME, organism-based
Settings: TgRasH2, mouse, plasma
property: Tmax (min)
Numbers only here, please. The scale is min.

Exam item: Quick check: Tmax of COCCCOc1cc(C[C@@H](C[C@H](N)[C@@H](O)C[C@H](C(=O)NCC(C)(C)C(N)=O)C(C)C)C(C)C)ccc1OC.COCCCOc1cc(C[C@@H](C[C@H](N)[C@@H](O)C[C@H](C(=O)NCC(C)(C)C(N)=O)C(C)C)C(C)C)ccc1OC.O=C(O)/C=C/C(=O)O [ALISKIREN FUMARATE] ?
Marked response: 4.98

====

Experiment: AUC(0-24h) of aliskiren hemifumarate following 2 week oral dosing of aliskiren hemifumarate at 50 mg.Kg-1 level studied on day 1 in male Callithrix jacchus
Format: ADME, organism-based
Details: marmoset, plasma
property: AUC(0-t) at 24 h (ng·h/mL)
Numbers only here, please. The scale is ng·h/mL.

Exam item: Quick check: AUC(0-t) at 24 h of COCCCOc1cc(C[C@@H](C[C@H](N)[C@@H](O)C[C@H](C(=O)NCC(C)(C)C(N)=O)C(C)C)C(C)C)ccc1OC.COCCCOc1cc(C[C@@H](C[C@H](N)[C@@H](O)C[C@H](C(=O)NCC(C)(C)C(N)=O)C(C)C)C(C)C)ccc1OC.O=C(O)/C=C/C(=O)O [ALISKIREN FUMARATE] ?
Marked response: 58100

====

Experiment: Tmax of aliskiren hemifumarate following 2 week oral dosing of aliskiren hemifumarate at 50 mg.Kg-1 level studied on day 14 in female Callithrix jacchus
Assay type: ADME, organism-based
Details: marmoset, plasma
property: Tmax (h)
Numbers only here, please. The scale is h.

Exam item: Quick check: Tmax of COCCCOc1cc(C[C@@H](C[C@H](N)[C@@H](O)C[C@H](C(=O)NCC(C)(C)C(N)=O)C(C)C)C(C)C)ccc1OC.COCCCOc1cc(C[C@@H](C[C@H](N)[C@@H](O)C[C@H](C(=O)NCC(C)(C)C(N)=O)C(C)C)C(C)C)ccc1OC.O=C(O)/C=C/C(=O)O [ALISKIREN FUMARATE] ?
Marked response: 1

====

Test: Cmax of unlabeled aliskiren hemifumarate following single intravenous dose of aliskiren hemifumarate at 10 mg.Kg-1 level in mouse
Assay type: ADME, organism-based
Details: TgRasH2, mouse, plasma
property: Cmax (µM)
Numbers only here, please. The scale is µM.

Exam item: Quick check: Cmax of COCCCOc1cc(C[C@@H](C[C@H](N)[C@@H](O)C[C@H](C(=O)NCC(C)(C)C(N)=O)C(C)C)C(C)C)ccc1OC.COCCCOc1cc(C[C@@H](C[C@H](N)[C@@H](O)C[C@H](C(=O)NCC(C)(C)C(N)=O)C(C)C)C(C)C)ccc1OC.O=C(O)/C=C/C(=O)O [ALISKIREN FUMARATE] ?
Marked response: 19.8

====

Molecular target: UniProt:P10635
Sequence (P10635 whole entry): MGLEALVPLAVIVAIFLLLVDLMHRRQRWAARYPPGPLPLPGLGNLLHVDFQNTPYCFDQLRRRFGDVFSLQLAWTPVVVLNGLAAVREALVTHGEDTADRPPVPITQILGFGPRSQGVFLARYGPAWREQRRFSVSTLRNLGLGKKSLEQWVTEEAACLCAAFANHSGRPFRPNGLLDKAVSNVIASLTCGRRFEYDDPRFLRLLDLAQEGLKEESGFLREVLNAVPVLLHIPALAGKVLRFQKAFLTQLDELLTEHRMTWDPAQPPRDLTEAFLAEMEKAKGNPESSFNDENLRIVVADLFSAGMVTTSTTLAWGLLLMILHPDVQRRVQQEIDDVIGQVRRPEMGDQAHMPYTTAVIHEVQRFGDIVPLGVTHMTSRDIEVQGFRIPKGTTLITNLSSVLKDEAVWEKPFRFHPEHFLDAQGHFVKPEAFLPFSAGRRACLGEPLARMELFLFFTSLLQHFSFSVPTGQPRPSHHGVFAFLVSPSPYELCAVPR
Assay: Inhibitory activity of 200 µM SPP100 on cDNA-derived CYP2D6 enzyme in microsome prepared from human lymphoblastoid cell line
Type: ADME, microsomes
Parameters: conc 200 µM, interact cpd conc 10 uM
Conditions: probe bufuralol (10 uM)
property: inhibition at 200 uM (%)
Numbers only here, please. The scale is %.

Exam item: Quick check: inhibition at 200 uM of COCCCOc1cc(C[C@@H](C[C@H](N)[C@@H](O)C[C@H](C(=O)NCC(C)(C)C(N)=O)C(C)C)C(C)C)ccc1OC ?
Marked response: 37
